I'd be grateful if you could share measured IC50 for these entries.
# Target System: D1 receptors (Rattus norvegicus)
# Sequence (P18901 whole entry): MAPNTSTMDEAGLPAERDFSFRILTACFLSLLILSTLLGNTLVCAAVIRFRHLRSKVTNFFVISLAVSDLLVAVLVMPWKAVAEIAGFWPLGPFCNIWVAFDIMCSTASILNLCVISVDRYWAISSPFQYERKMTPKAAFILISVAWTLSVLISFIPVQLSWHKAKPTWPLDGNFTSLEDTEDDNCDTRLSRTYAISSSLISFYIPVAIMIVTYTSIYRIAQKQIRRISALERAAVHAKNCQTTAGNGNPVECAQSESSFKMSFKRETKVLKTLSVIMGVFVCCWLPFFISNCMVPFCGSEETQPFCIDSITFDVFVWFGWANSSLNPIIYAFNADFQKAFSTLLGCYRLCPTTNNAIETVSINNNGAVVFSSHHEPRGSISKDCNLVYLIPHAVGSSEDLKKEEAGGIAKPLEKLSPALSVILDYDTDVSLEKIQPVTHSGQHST
# Experimental Details: affinity to D1 receptors (test described by Billard et al., Life Science, p. 35 (1985))
# Experimental Setup: D1 receptor; IC means inhibitory concentration
Write the value in pM as a bare number.

Problem: Under D1 receptors (Rattus norvegicus): IC50 value of CN1C(CCNC(=O)OCc2ccccc2)CC2c3cccc4[nH]cc(c34)CC21 (stereo not drawn) [Example 8] ?
Solution: 700

Problem: Under D1 receptors (Rattus norvegicus): IC50 value of CCNC(=O)N(CCCN(C)C)C(=O)CC1CC2c3cccc4[nH]cc(c34)CC2N1C (stereo not drawn) [Example 6] ?
Solution: 900

Problem: Under D1 receptors (Rattus norvegicus): IC50 value of CN1C(CCN2CC(=O)NC2=O)CC2c3cccc4[nH]cc(c34)CC21 (stereo not drawn) [Example 10] ?
Solution: 400
